Please provide measured pEC50 for the entries that follow.
molecular target: human 5-HT2B receptor (Homo sapiens, UniProt P41595); experiment: Intracellular calcium flux assay, HEK 293 cells stably expressing 5-HT2B; conditions: calcium flux; at least three independent experiments, each in triplicate; read-out: 5-HT2B mean EC50 ± SD;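 also: calcium dye fluorescence read on a FLIPR Tetra, peak signal above baseline within 60 s after compound addition, seven-point concentration series from 10 pM up to 10 µM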
Sequence (P41595 whole entry): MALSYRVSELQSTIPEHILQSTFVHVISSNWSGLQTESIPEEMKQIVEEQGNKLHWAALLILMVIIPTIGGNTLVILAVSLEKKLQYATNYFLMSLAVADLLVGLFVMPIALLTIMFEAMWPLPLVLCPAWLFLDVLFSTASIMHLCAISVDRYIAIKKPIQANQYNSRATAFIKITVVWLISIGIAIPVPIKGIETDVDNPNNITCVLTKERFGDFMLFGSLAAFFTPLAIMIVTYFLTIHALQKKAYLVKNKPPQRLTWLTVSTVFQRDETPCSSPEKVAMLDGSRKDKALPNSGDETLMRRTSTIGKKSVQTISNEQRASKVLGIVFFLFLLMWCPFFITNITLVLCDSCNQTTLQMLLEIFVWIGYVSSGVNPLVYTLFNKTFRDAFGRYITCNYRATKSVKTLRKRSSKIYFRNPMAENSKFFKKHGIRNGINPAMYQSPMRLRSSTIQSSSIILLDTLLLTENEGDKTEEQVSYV
Answers are plain numbers, as −log10 of the molar value.

Some solved entries appear below for comparison.
COMPOUND: CCCOc1cc(F)cc2c1c(CCN(C)C)cn2CCC.Cl [Compound 39, hydrochloride]
pEC50: 5.51
--
COMPOUND: CCCOc1cc(F)cc2c1c(CCN(C)C)cn2CC
pEC50: 6.27
--
COMPOUND: CCCOc1ccc(F)c2c1c(CCN(C)C)cn2CC
pEC50: 5.84
--
COMPOUND: COc1cc(F)cc2c1c(CCN(C)C)cn2C.Cl [Compound 31, hydrochloride]
pEC50: 7.26
--
COMPOUND: CCCOc1cc(F)cc2c1c(CCN(C)C)cn2C.Cl [Compound 33, hydrochloride]
pEC50: 6.74

Look at each compound and report its pEC50.
1. CCOc1ccc(F)c2c1c(CCN(C)C)cn2C
2. CCn1cc(CCN(C)C)c2c(OC)cc(F)cc21.Cl [Compound 34, hydrochloride]
3. CCOc1cc(F)cc2c1c(CCN(C)C)cn2CC
4. CCOc1cc(F)cc2c1c(CCN(C)C)cn2C.Cl [Compound 32, hydrochloride]

[6.66, 6.40, 6.11, 6.78]

response.value for CCCOc1ccc(F)c2c1c(CCN(C)C)cn2C (field: pEC50) = 6.48

Recorded values, source patent US20090318527A1.
